The molecules below have reported pIC50 for UniProt Q96GD4.
Sequence (Q96GD4 whole entry, species assumed): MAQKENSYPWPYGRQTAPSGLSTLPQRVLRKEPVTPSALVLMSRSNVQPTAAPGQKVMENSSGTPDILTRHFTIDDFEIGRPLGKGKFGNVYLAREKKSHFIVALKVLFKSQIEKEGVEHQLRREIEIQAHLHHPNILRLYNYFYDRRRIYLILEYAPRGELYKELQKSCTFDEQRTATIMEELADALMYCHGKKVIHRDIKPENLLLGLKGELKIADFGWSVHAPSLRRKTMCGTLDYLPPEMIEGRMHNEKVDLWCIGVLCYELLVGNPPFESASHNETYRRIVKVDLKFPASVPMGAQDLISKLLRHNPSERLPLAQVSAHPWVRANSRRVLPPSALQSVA
Sequence (Q9NQS7 821-918 partner limits assumed, species assumed): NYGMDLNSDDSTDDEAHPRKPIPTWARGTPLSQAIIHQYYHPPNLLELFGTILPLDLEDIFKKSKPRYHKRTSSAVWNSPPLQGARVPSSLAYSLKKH
Reminder that pIC50 means the negative base-10 logarithm of the concentration expressed in mol/L.

// solved cases for pIC50 follow
# MOLECULE, TARGET OR SYSTEM, pIC50
rows = [
    ("CCOC(=O)c1[nH]cc2c1NC1=C(C(=O)CCC1)C2c1ccc(Sc2nc3cc(F)c(Cl)cc3[nH]2)o1 (stereo not drawn) [Example 146]", "UniProt Q96GD4", 8.22),
    ("CCOC(=O)c1[nH]cc2c1NC1=C(C(=O)CN(C(=O)OC(C)(C)C)C1)C2c1ccc(Sc2nc3cc(Cl)ccc3[nH]2)o1 (stereo not drawn) [Example 130]", "UniProt Q96GD4", 7.43),
    ("O=C1CCCC2=C1C(c1ccc(Sc3nc4cc(OC(F)F)ccc4[nH]3)o1)c1c[nH]nc1N2 (stereo not drawn) [Example 76]", "UniProt Q96GD4", 8.05),
    ("CN1C2=C(C(=O)CCC2)C(c2ccc(Sc3nc4ccccc4[nH]3)o2)c2c[nH]nc21 (stereo not drawn) [Example 59]", "UniProt Q96GD4", 6.87),
    ("O=C1CCCC2=C1[C@H](c1ccc(Sc3nc4ccccc4[nH]3)o1)c1c[nH]nc1N2 (single isomer, unassigned) [120b (−)]", "UniProt Q96GD4", 7.12),
]

Qu. Fill blank: measured pIC50 of the molecule O=C1CC(c2ccc(Cl)cc2Cl)CC2=C1C(c1ccc(Sc3nc4ccccc4[nH]3)o1)c1c[nH]nc1N2 (stereo not drawn) [Example 33] is ____.
Ans. 7.49

Qu. Likewise for Cc1nc(Sc2ccc(C3C4=C(CNCC4=O)Nc4n[nH]cc43)o2)[nH]c1C (stereo not drawn) [Example 100] ?
Ans. 5.27

Qu. Also need O=C1CN(CC(O)CN2CCCCC2)CC2=C1C(c1ccc(Sc3nc4ccccc4[nH]3)o1)c1c[nH]nc1N2 (stereo not drawn) [Example 45] , thanks.
Ans. 7.37

Qu. Also, CC1(C)CC(=O)C2=C(C1)Nc1c(c[nH]c1C(=O)O)C2c1ccc(Sc2nc3ccccc3[nH]2)o1 (stereo not drawn) [Example 124] please.
Ans. 7.82
